Target: T1, full-length beta-Catenin (Uniprot ID P35222) (Homo sapiens (Human), UniProt P35222 1-781)
T1 construct: also called bCat; B-Catenin
T1 sequence: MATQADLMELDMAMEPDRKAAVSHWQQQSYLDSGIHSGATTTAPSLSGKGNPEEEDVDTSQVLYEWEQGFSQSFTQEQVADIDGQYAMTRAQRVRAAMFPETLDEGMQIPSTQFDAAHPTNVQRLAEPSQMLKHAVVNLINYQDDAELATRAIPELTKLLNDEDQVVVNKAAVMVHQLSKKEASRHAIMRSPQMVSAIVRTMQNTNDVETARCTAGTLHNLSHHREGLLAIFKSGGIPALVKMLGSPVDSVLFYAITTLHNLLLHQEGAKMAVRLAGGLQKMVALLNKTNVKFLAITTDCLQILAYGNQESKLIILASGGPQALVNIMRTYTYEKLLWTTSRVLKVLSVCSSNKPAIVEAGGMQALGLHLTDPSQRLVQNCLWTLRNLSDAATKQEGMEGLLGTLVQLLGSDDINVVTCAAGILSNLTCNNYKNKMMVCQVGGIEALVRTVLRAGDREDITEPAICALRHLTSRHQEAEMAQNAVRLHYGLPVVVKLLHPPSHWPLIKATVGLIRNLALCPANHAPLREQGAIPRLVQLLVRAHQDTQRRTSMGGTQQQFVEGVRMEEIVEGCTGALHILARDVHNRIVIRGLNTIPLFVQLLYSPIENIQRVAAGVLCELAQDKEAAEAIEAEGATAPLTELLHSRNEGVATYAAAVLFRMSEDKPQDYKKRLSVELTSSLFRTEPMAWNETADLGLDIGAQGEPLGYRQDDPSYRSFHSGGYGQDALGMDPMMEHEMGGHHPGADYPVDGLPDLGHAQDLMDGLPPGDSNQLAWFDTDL
Assay: fluorescence polarization competition; full-length beta-catenin with 5FAM-labeled TCF4 residues 10-53 probe as competitor
Starred links: 1 amine or outer side, 2 acyl side, 3 side chain; linkers in the order of their positions; H or OH if unused. Positions of bridges follow the written chain, without caps; N, C: chain ends. Non-standard residues stand in square brackets, D forms with d. Primed or numbered codes have the meaning given here. B5(5) = 2,2-bis(4-pentenyl)glycine, 2-amino-2-(pent-4-en-1-yl)hept-6-enoic acid (stitching residue), C=CCCCC(CCCC=C)(N[*:1])C(=O)[*:2]; B5(21) = 2-amino-2-(pent-4-en-1-yl)hept-6-enoic acid, bis(4-pentenyl)glycine (stitching residue), C=CCCCC(CCCC=C)(N[*:1])C(=O)[*:2]; (NHMe)AsnR = N4-methyl-L-asparagine, CNC(=O)C[C@H](N[*:1])C(=O)[*:2]; Bta = N[C@@H](Cc1csc2ccccc12)C(=O)O; αAllylPro = C=CC[C@@]1(C(=O)O)CCCN1; S8 = C=CCCCCCC[C@](C)(N)C(=O)O
Please respond with reported log10(IC50) for every item in the list.
Please keep in mind that the values are log10 of IC50 expressed in nM.

**Query** Please supply the value of reported log10(IC50) for the item XDIXDDAAFNXFXQ (not fully specified; N-terminal Ac; PL3 at 1; B5 at 4; S8 at 11; 2OMeF at 12; BztA at 13; C-terminal NH2; staples PL3(1)-B5(4) and B5(4)-S8(11) by olefin metathesis, It has the same description as I-550 and is the earlier eluting HPLC peak (staple isomer composition)) [I-549]
**Result** 1.85

**Query** Please supply the value of reported log10(IC50) for the item XDLXDDAAFQXFXH (not fully specified; N-terminal Ac; PL3 at 1; B5 at 4; S8 at 11; BztA at 13; C-terminal NH2; staples PL3(1)-B5(4) and B5(4)-S8(11) by olefin metathesis, It has the same description as I-560 and is the later eluting HPLC peak (staple isomer composition)) [I-561]
**Result** 1.53

**Query** Please supply the value of reported log10(IC50) for the item Ac-[αAllylPro]DL[B5(5)]DDAAFQ[S8]F[Bta]H-NH2 (staple 1-4, 4-11) [I-560]
**Result** 1.91

**Query** Please supply the value of reported log10(IC50) for the item Ac-[αAllylPro]DL[B5(5)]DDAAFN[S8]F[Bta]Q-NH2 (staple 1-4, 4-11) [I-562]
**Result** 1.71

**Query** Please supply the value of reported log10(IC50) for the item Ac-[αAllylPro]DA[B5(21)][(NHMe)AsnR]DAAFV[S8]F[Bta]Q-NH2 (staple 1-4, 4-11) [I-540]
**Result** 3.70

**Query** Please supply the value of reported log10(IC50) for the item XDLXDDAAFQXFXQ (not fully specified; N-terminal Ac; PL3 at 1; B5 at 4; S8 at 11; BztA at 13; C-terminal NH2; staples PL3(1)-B5(4) and B5(4)-S8(11) by olefin metathesis, It has the same description as I-558 and is the later eluting HPLC peak (staple isomer composition)) [I-559]
**Result** 1.63

**Query** Please supply the value of reported log10(IC50) for the item XDTXDEAAFQXFXQ (not fully specified; N-terminal Ac; PL3 at 1; TOMe at 3; B5 at 4; S8 at 11; BztA at 13; C-terminal NH2; staples PL3(1)-B5(4) and B5(4)-S8(11) by olefin metathesis) [I-542]
**Result** 2.04
